System: SW 900
protocol_notes: relative viability (nuclei count vs DMSO), 5 days (fraction); higher = more cells survive
conditions: first compound 0.01 µM
quantity: relative viability

[[record]]
compound = "CCN(CC)CCCCNc1ncc2cc(-c3cc(OC)cc(OC)c3)c(NC(=O)NC(C)(C)C)nc2n1 + CC(=O)Nc1cccc(-n2c(=O)n(C3CC3)c(=O)c3c(Nc4ccc(I)cc4F)n(C)c(=O)c(C)c32)c1 [Trametinib] (partner 0.02 µM)"
value = 0.787

[[record]]
compound = "CCN(CC)CCCCNc1ncc2cc(-c3cc(OC)cc(OC)c3)c(NC(=O)NC(C)(C)C)nc2n1 + Cc1nc(Nc2ncc(C(=O)Nc3c(C)cccc3Cl)s2)cc(N2CCN(CCO)CC2)n1 [Dasatinib] (partner 0.075 µM)"
value = 0.346


* * *

System: NCI-H322M
protocol_notes: relative viability (nuclei count vs DMSO), 5 days (fraction); higher = more cells survive
conditions: first compound 0.03162 µM
// assign criterion met if relative viability falls strictly below 0.6, else criterion not met (ties count as criterion not met)

[[record]]
compound = "O=c1cc(N2CCOCC2)oc2c(-c3cccc4c3sc3ccccc34)cccc12 + CC(C)C[C@H](NC(=O)[C@H](Cc1ccccc1)NC(=O)c1cnccn1)B(O)O [Bortezomib] (partner 0.002 µM)"
category = "criterion not met"

[[record]]
compound = "O=c1cc(N2CCOCC2)oc2c(-c3cccc4c3sc3ccccc34)cccc12 + CC(=O)c1c(C)c2cnc(Nc3ccc(N4CCNCC4)cn3)nc2n(C2CCCC2)c1=O [Palbociclib] (partner 0.5 µM)"
category = "criterion met"

[[record]]
compound = "O=c1cc(N2CCOCC2)oc2c(-c3cccc4c3sc3ccccc34)cccc12 + Cc1cc(Nc2cc(N3CCN(C)CC3)nc(Sc3ccc(NC(=O)C4CC4)cc3)n2)n[nH]1 [Tozasertib] (partner 0.1 µM)"
category = "criterion met"

[[record]]
compound = "CCN(CC)CCCCNc1ncc2cc(-c3cc(OC)cc(OC)c3)c(NC(=O)NC(C)(C)C)nc2n1 + CCNC(=O)c1noc(-c2cc(C(C)C)c(O)cc2O)c1-c1ccc(CN2CCOCC2)cc1 [Luminespib] (partner 0.01 µM)"
category = "criterion not met"

[[record]]
compound = "O=c1cc(N2CCOCC2)oc2c(-c3cccc4c3sc3ccccc34)cccc12 + COc1cc2c(Oc3ccc(NC(=O)C4(C(=O)Nc5ccc(F)cc5)CC4)cc3F)ccnc2cc1OCCCN1CCOCC1 [Foretinib] (partner 0.25 µM)"
category = "criterion not met"

[[record]]
compound = "CCN(CC)CCCCNc1ncc2cc(-c3cc(OC)cc(OC)c3)c(NC(=O)NC(C)(C)C)nc2n1 + CS(=O)(=O)N1CCN(Cc2cc3nc(-c4cccc5[nH]ncc45)nc(N4CCOCC4)c3s2)CC1 [Pictilisib] (partner 1 µM)"
category = "criterion met"

[[record]]
compound = "O=c1cc(N2CCOCC2)oc2c(-c3cccc4c3sc3ccccc34)cccc12 + Nc1ncn([C@H]2C[C@H](O)[C@@H](CO)O2)c(=O)n1 [Decitabine] (partner 2 µM)"
category = "criterion not met"

[[record]]
compound = "CCN(CC)CCCCNc1ncc2cc(-c3cc(OC)cc(OC)c3)c(NC(=O)NC(C)(C)C)nc2n1 + N=C(N)NC(=N)NCCc1ccccc1 [Phenformin] (partner 250 µM)"
category = "criterion not met"

